# Test system: Tetranychus urticae
# test-description: Tetranychus urticae spray test, OP-resistant (TETRUR)
# Type: in vivo
# protocol-conditions: application rate 100 g/ha, spray, after 6 days
Below: a set of entries, each annotated with reported efficacy.
quantity-measured: efficacy (%)

In [3]: df
Out[3]:
                              smiles_record  unit_spec  result_value
0  Cc1sc(-c2cnn(-c3c(Cl)cc(C(F)(C(F)(F)F)C(F)(F)F)cc3Cl)c2)cc1C(=O)NC1CC1          %           100
1  N#CC1(NC(=O)c2cc(-c3cnn(-c4c(Cl)cc(C(F)(C(F)(F)F)C(F)(F)F)cc4Cl)c3)sc2I)CC1          %           100
2  O=C(NC1CC1)c1cc(-c2cnn(-c3c(Cl)cc(C(F)(C(F)(F)F)C(F)(F)F)cc3Cl)c2)sc1Cl          %           100
3  Cc1sc(-c2cnn(-c3c(Cl)cc(C(F)(C(F)(F)F)C(F)(F)F)cc3Cl)c2)cc1C(=O)NC1(C#N)CC1          %           100
4  N#CC1(NC(=O)c2csc(-c3cnn(-c4c(Cl)cc(C(F)(C(F)(F)F)C(F)(F)F)cc4Cl)c3)c2)CC1          %           100
5  N#CC1(NC(=O)c2cc(-c3cnn(-c4c(Cl)cc(C(F)(C(F)(F)F)C(F)(F)F)cc4Cl)c3)sc2Cl)CC1          %           100
6  O=C(NC1CC1)c1cc(-c2cnn(-c3c(Cl)cc(C(F)(C(F)(F)F)C(F)(F)F)cc3Cl)c2)sc1I          %           100

---

# System: Phaedon cochleariae
# test-description: Phaedon cochleariae spray test (PHAECO)
# Format: in vivo
# protocol-conditions: application rate 100 g/ha, spray, after 7 days
Below: a set of entries, each annotated with reported efficacy.
quantity-measured: efficacy (%)

>>> print(df.to_string())
                                   compound         assay_target  unit_spec  result_value
0  O=C(NC1CC1)c1csc(-c2cnn(-c3c(Cl)cc(C(F)(C(F)(F)F)C(F)(F)F)cc3Cl)c2)n1 [I-T1-8]  Phaedon cochleariae          %            83
1  O=C(NC1CC1)c1nc(-c2cnn(-c3c(Cl)cc(C(F)(C(F)(F)F)C(F)(F)F)cc3Cl)c2)sc1Cl [I-T1-7]  Phaedon cochleariae          %            83
2  Cc1sc(-c2cnn(-c3c(Cl)cc(C(F)(C(F)(F)F)C(F)(F)F)cc3Cl)c2)cc1C(=O)NC1(C#N)CC1 [I-T1-10]  Phaedon cochleariae          %           100
3  N#CC1(NC(=O)c2cc(-c3cnn(-c4c(Cl)cc(C(F)(C(F)(F)F)C(F)(F)F)cc4Cl)c3)sc2Br)CC1 [I-T1-2]  Phaedon cochleariae          %           100
4  O=C(NC1CC1)c1cc(-c2cnn(-c3c(Cl)cc(C(F)(C(F)(F)F)C(F)(F)F)cc3Cl)c2)sc1I [I-T1-14]  Phaedon cochleariae          %           100
5  N#CC1(NC(=O)c2cc(-c3cnn(-c4c(Cl)cc(C(F)(C(F)(F)F)C(F)(F)F)cc4Cl)c3)sc2I)CC1 [I-T1-15]  Phaedon cochleariae          %           100
6  Cn1cc(-c2cnn(-c3c(Cl)cc(C(F)(C(F)(F)F)C(F)(F)F)cc3Cl)c2)cc1C(=O)NC1(C#N)CC1 [I-T1-4]  Phaedon cochleariae          %           100
7  Cc1sc(-c2cnn(-c3c(Cl)cc(C(F)(C(F)(F)F)C(F)(F)F)cc3Cl)c2)cc1C(=O)NC1CC1 [I-T1-11]  Phaedon cochleariae          %           100
